experiment: Determination of compound Cmax and AUC after oral gavage (plasma LC-MS/MS); assay type: in vivo, Sprague-Dawley rats; conditions: Sprague-Dawley, rat, plasma, po, Structure (III) examples, Table 6, actual oral dose 8.9-10 mg/kg
endpoint: AUC (µg·h/mL)
// units = µg·h/mL; emit number, no label

response.value for CN(CCN1CCOCC1)C(=O)c1cccc(C(=O)Nc2ccc(N3CCCCC3)cc2C(=O)Nc2cnc(-c3ccccc3)nc2)c1 [Example 11] (field: AUC) = 0.14

* * *

Assay: Determination of compound Cmax and AUC after oral gavage (plasma LC-MS/MS)
Format: in vivo, Sprague-Dawley rats
Settings: Sprague-Dawley, rat, plasma, po, Structure (I) examples, Table 15, actual oral dose 3-15 mg/kg, plasma 0.5-4 h
Protocol: Sprague-Dawley rats were orally gavaged with test article at a nominal dose of 2.5 or 10 mg/kg and blood was collected at 0.5, 1, 2 and 4 h. Blood samples were processed to plasma using K2EDTA as an anticoaglulant. […] Supernatants were analyzed by LC-MS/MS and compound concentrations were determined by interpolation from a standard curve prepared in plasma. All compounds were orally dosed at the dosage shown, and pharmacokinetic parameters determined. […]
Structures can show the parent of a compound that is named as a salt.
Entries and their AUC values follow.

Example compounds with recorded AUC:
>  <compound>
COCCOCCOCCOCCOCCOCCOCCN(C)C(=O)[C@H]1CCCN(C(=O)c2cccc(C(=O)Nc3ccc(N4CCCCC4)cc3-c3cc(C(=O)N[C@H]4CCCc5ccccc54)ccn3)c2)C1 [Example 255]

>  <result>
< 10 ng·h/mL

$$$$
>  <compound>
CCN(CC)c1ccc(NC(=O)c2cccc(C(=O)N(C)CCN(CCOC)CCOCCOCCOCCOCCOCCOCCOC)c2)c(-c2cc(C(=O)NCc3cccc(C(F)(F)F)c3)ccn2)c1 [Example 335, trifluoroacetate]

>  <result>
> 50 ng·h/mL

$$$$
>  <compound>
CCN(CC)c1ccc(NC(=O)c2cccc(CCCOCCOCCOCCOCCOCCOCCOCCOCCOC)c2)c(-c2cc(C(=O)N[C@H]3CCCc4ccccc43)ccn2)c1 [Example 261]

>  <result>
> 50 ng·h/mL

$$$$

Pending compound:
response.value for CN(CCOCCOCCOCCC(=O)O)C(=O)c1cccc(C(=O)Nc2ccc(N3CCCCC3)cc2-c2cc(C(=O)NCc3cccc(C(F)(F)F)c3)ccn2)c1 [Example 248] (field: AUC) = < 10 ng·h/mL

Reference source: patent US20140023611A1
